Reported IC50 is given for each of the following compounds.
- assayed_target: PI3Kδ (p110δ/p85α) Recombinant Human Protein (Homo sapiens (Human), UniProt O00329)
- Sequence (O00329 whole entry): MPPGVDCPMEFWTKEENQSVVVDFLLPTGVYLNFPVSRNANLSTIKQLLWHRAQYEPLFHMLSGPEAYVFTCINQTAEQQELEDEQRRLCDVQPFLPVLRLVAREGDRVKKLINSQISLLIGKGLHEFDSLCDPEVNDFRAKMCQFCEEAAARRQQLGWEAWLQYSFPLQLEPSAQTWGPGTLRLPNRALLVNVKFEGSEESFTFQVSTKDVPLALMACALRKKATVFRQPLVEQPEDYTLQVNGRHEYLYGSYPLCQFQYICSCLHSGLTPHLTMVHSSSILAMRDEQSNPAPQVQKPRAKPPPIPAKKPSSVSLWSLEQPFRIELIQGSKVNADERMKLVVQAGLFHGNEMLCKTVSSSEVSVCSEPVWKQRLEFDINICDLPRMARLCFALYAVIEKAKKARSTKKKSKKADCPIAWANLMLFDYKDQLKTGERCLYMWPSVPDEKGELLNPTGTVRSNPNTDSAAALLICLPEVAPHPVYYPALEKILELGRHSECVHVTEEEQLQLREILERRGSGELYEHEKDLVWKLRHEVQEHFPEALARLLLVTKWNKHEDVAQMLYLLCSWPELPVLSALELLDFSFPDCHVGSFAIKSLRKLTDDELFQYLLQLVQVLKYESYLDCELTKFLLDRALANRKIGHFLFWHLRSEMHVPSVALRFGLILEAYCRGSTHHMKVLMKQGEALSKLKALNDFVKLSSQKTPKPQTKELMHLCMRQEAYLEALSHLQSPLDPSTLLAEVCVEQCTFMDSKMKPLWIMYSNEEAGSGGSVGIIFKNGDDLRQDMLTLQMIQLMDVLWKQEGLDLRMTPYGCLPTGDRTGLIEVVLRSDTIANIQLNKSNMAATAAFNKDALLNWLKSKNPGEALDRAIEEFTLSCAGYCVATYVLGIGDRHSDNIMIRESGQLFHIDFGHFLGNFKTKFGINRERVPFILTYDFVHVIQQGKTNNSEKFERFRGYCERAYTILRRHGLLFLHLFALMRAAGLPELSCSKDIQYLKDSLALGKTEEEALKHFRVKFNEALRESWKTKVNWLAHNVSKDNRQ
- Sequence (P27986 whole entry partner): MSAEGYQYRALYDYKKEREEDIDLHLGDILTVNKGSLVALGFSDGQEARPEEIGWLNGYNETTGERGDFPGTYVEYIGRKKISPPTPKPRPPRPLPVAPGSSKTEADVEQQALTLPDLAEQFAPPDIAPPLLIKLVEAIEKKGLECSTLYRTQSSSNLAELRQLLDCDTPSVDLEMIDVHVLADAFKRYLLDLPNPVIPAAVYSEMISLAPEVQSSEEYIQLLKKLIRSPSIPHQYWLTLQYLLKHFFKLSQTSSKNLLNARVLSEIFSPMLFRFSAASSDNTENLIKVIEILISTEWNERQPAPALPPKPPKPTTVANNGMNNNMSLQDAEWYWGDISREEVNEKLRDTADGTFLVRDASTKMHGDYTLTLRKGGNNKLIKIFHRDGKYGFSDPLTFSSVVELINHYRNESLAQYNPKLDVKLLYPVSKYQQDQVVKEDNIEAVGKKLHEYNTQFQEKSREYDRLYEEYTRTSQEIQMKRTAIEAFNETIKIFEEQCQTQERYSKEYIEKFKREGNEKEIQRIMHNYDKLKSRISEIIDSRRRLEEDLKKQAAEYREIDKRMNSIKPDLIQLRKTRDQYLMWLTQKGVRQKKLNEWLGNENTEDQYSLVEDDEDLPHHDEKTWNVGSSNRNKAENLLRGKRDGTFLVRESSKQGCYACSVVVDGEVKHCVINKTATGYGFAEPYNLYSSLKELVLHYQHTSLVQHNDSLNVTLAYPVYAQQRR
- method_notes: PI3Kδ scintillation proximity assay
- Type: biochemical
- condition_info: 20 μM PIP2, 2 μM ATP, 3.4 nM PI3Kδ, 120 min, room temperature; read-out: PI3Kδ IC50
Structures can show the parent of a compound that is named as a salt.

These recorded examples may help you get a feel for the data.
Cc1ccc(C(O)(C(N)=O)C(F)(F)F)cc1-c1cnc2c(N)nc(C(=O)NC3(C4CC4)CCOC3)cn12 (stereo not drawn) [Example 83, trifluoroacetate salt] :: 100 to 500 nM
Cc1ccc(C(O)(CO)C(F)(F)F)cc1-c1cnc2c(N)nc(C(F)(F)F)cn12 (single isomer, unassigned) [Example 73] :: 100 to 500 nM
Cc1ccc(C(C)(O)C(F)F)cc1-c1cnc2c(N)nc(-c3ccnc(C)c3F)cn12 (stereo not drawn) [Example 35] :: < 100 nM
Cc1ccc(C(C)(O)C(F)F)cc1-c1cnc2c(N)nc(-c3ccnc(CO)c3)cn12 (single isomer, unassigned) [Example 44] :: < 100 nM

Task: Param readout = IC50; param system = PI3Kδ (p110δ/p85α) Recombinant Human Protein (Homo sapiens (Human), UniProt O00329); param query = Cc1ccc(C(C)(O)C(F)(F)F)cc1-c1cnc2c(N)nc(CC(=O)N(C)C)cn12 (stereo not drawn) [Example 169, trifluoroacetate salt] ; response: value
Result: 500 to 2000 nM

Task: Param readout = IC50; param system = PI3Kδ (p110δ/p85α) Recombinant Human Protein (Homo sapiens (Human), UniProt O00329); param query = Cc1ccc(C(C)(O)C(F)F)cc1-c1cnc2c(N)nc(-c3ccnn3C)cn12 (single isomer, unassigned) [Example 29, trifluoroacetate salt] ; response: value
Result: 100 to 500 nM

Task: Param readout = IC50; param system = PI3Kδ (p110δ/p85α) Recombinant Human Protein (Homo sapiens (Human), UniProt O00329); param query = [2H]C([2H])([2H])c1ccc(C(C)(O)C(F)(F)F)cc1-c1cnc2c(N)nc(C(C)(C)O)cn12 (single isomer, unassigned) [Example 253, trifluoroacetate salt] ; response: value
Result: 100 to 500 nM

Task: Param readout = IC50; param system = PI3Kδ (p110δ/p85α) Recombinant Human Protein (Homo sapiens (Human), UniProt O00329); param query = Cc1ccc(C(O)(C(N)=O)C(F)F)cc1-c1cnc2c(N)nc(C(F)(F)F)cn12 (stereo not drawn) [Example 89] ; response: value
Result: < 100 nM

Task: Param readout = IC50; param system = PI3Kδ (p110δ/p85α) Recombinant Human Protein (Homo sapiens (Human), UniProt O00329); param query = Cc1ccc(C(C)(O)C(F)F)cc1-c1cnc2c(N)nc(-c3cc(C(N)=O)ccc3F)cn12 (stereo not drawn) [Example 31] ; response: value
Result: 100 to 500 nM

Task: Param readout = IC50; param system = PI3Kδ (p110δ/p85α) Recombinant Human Protein (Homo sapiens (Human), UniProt O00329); param query = Cc1cc(CNC(=O)c2cn3c(-c4cc(C(C)(O)C(F)(F)F)ccc4C)cnc3c(N)n2)on1 (stereo not drawn) [Example 22, TFA] ; response: value
Result: < 100 nM

Task: Param readout = IC50; param system = PI3Kδ (p110δ/p85α) Recombinant Human Protein (Homo sapiens (Human), UniProt O00329); param query = CNC(=O)C(C)(C)C(O)(c1ccc(C)c(-c2cnc3c(N)nc(C(F)(F)F)cn23)c1)C(F)(F)F (stereo not drawn) [Example 262] ; response: value
Result: 100 to 500 nM

Task: Param readout = IC50; param system = PI3Kδ (p110δ/p85α) Recombinant Human Protein (Homo sapiens (Human), UniProt O00329); param query = CC(=O)NCC(O)(c1ccc(C)c(-c2cnc3c(N)nc(C(F)(F)F)cn23)c1)C(F)(F)F (stereo not drawn) [Example 211, trifluoroacetate] ; response: value
Result: 100 to 500 nM

Task: Param readout = IC50; param system = PI3Kδ (p110δ/p85α) Recombinant Human Protein (Homo sapiens (Human), UniProt O00329); param query = Cc1ccc(C(C)(O)C(F)F)cc1-c1cnc2c(N)nc(-c3cn(C)nc3C)cn12 (stereo not drawn) [Example 38] ; response: value
Result: < 100 nM

Task: Param readout = IC50; param system = PI3Kδ (p110δ/p85α) Recombinant Human Protein (Homo sapiens (Human), UniProt O00329); param query = Cc1ccc(C(C)(O)C(F)F)cc1-c1cnc2c(N)nc(C3CC3C(=O)NC(C)(C)CO)cn12 (stereo not drawn) [Example 78] ; response: value
Result: 100 to 500 nM

Task: Param readout = IC50; param system = PI3Kδ (p110δ/p85α) Recombinant Human Protein (Homo sapiens (Human), UniProt O00329); param query = Cc1ccc(C(C)(O)C(F)F)cc1-c1cnc2c(N)nc(-c3ccc(C(C)O)nc3)cn12 (single isomer, unassigned) [Example 136] ; response: value
Result: 100 to 500 nM

Task: Param readout = IC50; param system = PI3Kδ (p110δ/p85α) Recombinant Human Protein (Homo sapiens (Human), UniProt O00329); param query = Cc1ccc(C(O)(CCO)C(F)(F)F)cc1-c1cnc2c(N)nc(C(F)(F)F)cn12 (stereo not drawn) [Example 18] ; response: value
Result: 100 to 500 nM

Task: Param readout = IC50; param system = PI3Kδ (p110δ/p85α) Recombinant Human Protein (Homo sapiens (Human), UniProt O00329); param query = Cc1ccc(C(O)(C(N)=O)C(F)(F)F)cc1-c1cnc2c(N)nc(C(=O)NCC(C)(C)O)cn12 (stereo not drawn) [Example 284] ; response: value
Result: 100 to 500 nM

Task: Param readout = IC50; param system = PI3Kδ (p110δ/p85α) Recombinant Human Protein (Homo sapiens (Human), UniProt O00329); param query = Cc1ccc(C(C)(O)C(F)F)cc1-c1cnc2c(N)nc(-c3ccnc(CO)c3)cn12 (single isomer, unassigned) [Example 45] ; response: value
Result: < 100 nM

Task: Param readout = IC50; param system = PI3Kδ (p110δ/p85α) Recombinant Human Protein (Homo sapiens (Human), UniProt O00329); param query = Cc1ccc(C(O)(C(N)=O)C(F)(F)F)cc1-c1cnc2c(N)nc(C(=O)NC3(C(F)(F)F)CCOCC3)cn12 (stereo not drawn) [Example 85, trifluoroacetate] ; response: value
Result: 500 to 2000 nM

Task: Param readout = IC50; param system = PI3Kδ (p110δ/p85α) Recombinant Human Protein (Homo sapiens (Human), UniProt O00329); param query = Cc1ccc(C(C)(O)C(F)F)cc1-c1cnc2c(N)nc(-n3cncn3)cn12 (stereo not drawn) [Example 49] ; response: value
Result: 100 to 500 nM

Task: Param readout = IC50; param system = PI3Kδ (p110δ/p85α) Recombinant Human Protein (Homo sapiens (Human), UniProt O00329); param query = Cc1ccc(C(O)(C(N)=O)C(F)(F)F)cc1-c1cnc2c(N)nc(C(=O)NC3CCOCC3)cn12 (stereo not drawn) [Example 285] ; response: value
Result: 500 to 2000 nM

Task: Param readout = IC50; param system = PI3Kδ (p110δ/p85α) Recombinant Human Protein (Homo sapiens (Human), UniProt O00329); param query = CCNC(=O)c1cn2c(-c3cc(C(O)(CNC(C)=O)C(F)(F)F)ccc3C)cnc2c(N)n1 (stereo not drawn) [Example 221, trifluoroacetate] ; response: value
Result: 100 to 500 nM

Task: Param readout = IC50; param system = PI3Kδ (p110δ/p85α) Recombinant Human Protein (Homo sapiens (Human), UniProt O00329); param query = [2H]C([2H])([2H])c1ccc(C(C)(O)C(F)(F)F)cc1-c1cnc2c(N)nc(-c3cnn(C4(CC#N)CC(C(=O)OC)C4)c3)cn12 (stereo not drawn) [Example 88, trifluoroacetate] ; response: value
Result: 100 to 500 nM

Task: Param readout = IC50; param system = PI3Kδ (p110δ/p85α) Recombinant Human Protein (Homo sapiens (Human), UniProt O00329); param query = Cc1ccc(C(C)(O)C(F)(F)F)cc1-c1cnc2c(N)nc(C(=O)NCC(C)(C)O)cn12 (single isomer, unassigned) [Example 62] ; response: value
Result: 100 to 500 nM

Task: Param readout = IC50; param system = PI3Kδ (p110δ/p85α) Recombinant Human Protein (Homo sapiens (Human), UniProt O00329); param query = Cc1ccc(C(C)(O)C(F)(F)Cl)cc1-c1cnc2c(N)nc(C(F)(F)F)cn12 (stereo not drawn) [Example 268] ; response: value
Result: 100 to 500 nM

Task: Param readout = IC50; param system = PI3Kδ (p110δ/p85α) Recombinant Human Protein (Homo sapiens (Human), UniProt O00329); param query = CNC(=O)c1cn2c(-c3cc(C(C)(O)C(F)(F)F)ccc3C)cnc2c(N)n1 (stereo not drawn) [Example 9] ; response: value
Result: 100 to 500 nM

Task: Param readout = IC50; param system = PI3Kδ (p110δ/p85α) Recombinant Human Protein (Homo sapiens (Human), UniProt O00329); param query = Cc1ccc(C(O)(C(N)=O)C(F)(F)F)cc1-c1cnc2c(N)nc(C(F)(F)F)cn12 (stereo not drawn) [Example 82] ; response: value
Result: < 100 nM
